max response overview
Tested on: KB-3-1
Assay Explanation: Cytotoxic Profiling of Annotated Libraries Using Quantitative High-Throughput Screening (AID 1296008); further: on the % scale 0 is the no-effect control and ±100 the full control effect; nearly all actives have a fitted effect of over 60% in size
Reported Conditions: Five cell lines viability, CellTiter-Glo ATP luminescence, 48-72 h; active compounds read low
Inconclusive results are not listed.
Field format: number, assumed %, no unit text.

Sample answers from the record:
INSERT INTO measurements (molecule, assay_metric, obs_value) VALUES
  ('CC1=CCC2C(C)(C)CCC[C@]2(C)[C@@]12CC[C@](C)(CC(=O)O)O2 (some centres undefined)', 'max response', -6.84),
  ('C[C@@H]1C[C@@H]([C@@H](O)C(C)(C)O)O[C@H]2C[C@@]3(C)C(=C12)C[C@H](O)[C@H]1[C@@]2(C)CCC(=O)C(C)(C)C2CC[C@@]13C (some centres undefined)', 'max response', 5.24),
  ('CC(O)/C=C/C1(O)C(C)C(O[C@@H]2O[C@H](CO)[C@@H](O)[C@H](O)[C@H]2O)C(O)CC1(C)C (some centres undefined)', 'max response', -3.24),
  ('CO[C@H]1/C=C/[C@@](C)(O)/C=C/C(=O)O[C@H](C)[C@@H](C)CC/C=C/1C', 'max response', -8.74),
  ('CCC(COC)n1nnc2c(Nc3ccc(OC)cc3C)nc(C)cc21 (centres undefined)', 'max response', 6.85);

What value of max response has been recorded for this entry: COC1C(=O)CCC2(CO2)C1(O)C1(C)OC1CC=C(C)C (centres undefined)
6.79

What value of max response has been recorded for this entry: C=C[C@H]1[C@H](O[C@@H]2O[C@H](CO)[C@@H](O)[C@H](O)[C@H]2O)OC=C(C(=O)OC)[C@H]1CC(=O)O
-3

What value of max response has been recorded for this entry: C/C1=C\C[C@]2(C)C(=O)C(O)=C([C@H](C)CO)[C@H]2C/C=C(\C)[C@@H](O)CC/C(C)=C/CC1
0.384

What value of max response has been recorded for this entry: CCOCCn1nc(CC)c2nc(N3CCC(C(=O)O)CC3)nc(Nc3cc(C)ccn3)c21
-10.2

What value of max response has been recorded for this entry: CC(O)/C=C/C1C(C)C(O[C@@H]2O[C@H](CO)[C@@H](O)[C@H](O)[C@H]2O)C(O)CC1(C)C (some centres undefined)
3.1

What value of max response has been recorded for this entry: C[C@@H]1C(=O)O[C@H]2C[C@]34[C@H]5C[C@@H](C(C)(C)C)[C@]36[C@@H](OC(=O)[C@H]6O)O[C@]4(C(=O)O5)[C@]21O
-3.28

What value of max response has been recorded for this entry: C=C(C)C1CCC(C)C12CC(O)C1(C)OC1C2OC(=O)C(N)CCC(=O)O (centres undefined)
1.24

What value of max response has been recorded for this entry: C[C@@H]1O[C@@H](O[C@@H]2[C@@H](O)[C@H](O[C@H]3[C@H](O[C@H]4CC[C@@]5(C)C(CC[C@]6(C)C5CC=C5[C@@H]7CC(C)(C)CC[C@]7(C(=O)O[C@@H]7O[C@H](CO)[C@@H](O)[C@H](O)[C@H]7O[C@@H]7O[C@@H](C)[C@H](O[C@@H]8O[C@@H](C)[C@H](O)[C@@H](O)[C@H]8O)[C@@H](O)[C@H]7O)CC[C@]56C)[C@@]4(C)CO)O[C@H](C(=O)O)[C@@H](O)[C@@H]3O)O[C@H](CO)[C@H]2O)[C@H](O)[C@H](O)[C@H]1O (some centres undefined)
5.11

What value of max response has been recorded for this entry: CC(C)CN(C[C@@H](O)[C@H](Cc1ccccc1)NC(=O)O[C@@H]1CO[C@H]2OCC[C@H]21)S(=O)(=O)c1ccc(N)cc1
-3.21
